- Test system: Acinetobacter baumannii, ATCC 17978
- test: MIC testing, broth microdilution in CAMHB
- Format: cell-based
- measurement.setup: 37° C., 18-20 hr, lowest concentration that completely inhibits visible growth
assay.metric: Compound MICs, Acinetobacter baumannii, ATCC 17978 (µg/mL)
Expressed in µg/mL, but write only the number.

Example cases with answers are listed next.
compound | result.number
CCc1ccc(Cn2ccc3c4c(N)nc(N)nc4ccc32)cc1 [Compound 31] | 7.11
Cc1cc2c(ccn2Cc2ccc(F)cc2)c2c(N)nc(N)nc12 [Compound 55] | 2.37
N#Cc1ccc(Cn2ccc3c4c(N)nc(N)nc4ccc32)s1 [Compound 57] | 7.11
Nc1nc(N)c2c(ccc3c2ccn3Cc2ccc3ccccc3c2)n1 [Compound 26] | 2.37
C=C(Cn1ccc2c3c(N)nc(N)nc3ccc21)C(=O)OC [Compound 62] | 21.3
Nc1nc(NC2CC2)nc2ccc3c(ccn3Cc3ccc(C#CC4CC4)cc3)c12 [Compound 20] | 64

Problem: Fill in: Compound MICs, Acinetobacter baumannii, ATCC 17978 on Acinetobacter baumannii, ATCC 17978, entry CC(C)C#Cc1ccc(Cn2ccc3c4c(N)nc(NC5CC5)nc4ccc32)cc1 [Compound 17]
Solution: 21.3

Problem: Find Compound MICs, Acinetobacter baumannii, ATCC 17978 for COc1cc(Cn2ccc3c4c(N)nc(N)nc4ccc32)cc(OC)c1 [Compound 66] on Acinetobacter baumannii, ATCC 17978 and write it down.
Solution: 7.11

Problem: Give Compound MICs, Acinetobacter baumannii, ATCC 17978 for Nc1nc(N)c2c(ccc3c2ccn3Cc2ccc(F)nc2)n1 [Compound 45] tested on Acinetobacter baumannii, ATCC 17978.
Solution: 2.37

* * *

- System: Enterococcus faecalis, ATCC 51575
- test: MIC testing, broth microdilution in CAMHB
- Format: cell-based
- measurement.setup: Enterococcus faecalis, ATCC51575, 37° C., 18-20 hr, lowest concentration that completely inhibits visible growth, read-out: Compound MICs, Enterococcus faecalis, ATCC 51575
assay.metric: log10 MIC (log10 of the value in µg/mL)
The common logarithm of MIC in µg/mL is what is listed.

// known answers, use as guide
line.notation | result.number
Nc1nc(N)c2c(ccc3c2ccn3Cc2cccc(Oc3ccccc3)c2)n1 | -1.52
Nc1nc(N)c2c(ccc3c2ccn3Cc2ccc(F)cc2)n1 | -2.00
Nc1nc(N)c2c(ccc3c2ccn3CC#Cc2ccccc2)n1 | -1.52
Nc1nc(N)c2c(ccc3c2ccn3Cc2cccc(F)c2)n1 | -1.52
COc1cc(Cn2ccc3c4c(N)nc(N)nc4ccc32)cc(OC)c1OC | -2.00
COc1ccnc(Cn2ccc3c4c(N)nc(N)nc4ccc32)c1 | -1.05

Problem: For the molecule Nc1nc(N)c2c(ccc3c2ccn3C/C=C/c2ccccc2)n1 , report log10 MIC.
Solution: -1.52

Problem: Tell us which log10 MIC value is on record for C#Cc1ccc(Cn2ccc3c4c(N)nc(NC5CC5)nc4ccc32)cc1
Solution: -0.59

Problem: Please list log10 MIC recorded for the molecule CC(C)c1ccc(Cn2ccc3c4c(N)nc(N)nc4ccc32)cc1
Solution: -1.52

Problem: For the molecule Nc1nc(N)c2c(ccc3c2ccn3Cc2ccc(F)c(F)c2)n1 , report log10 MIC.
Solution: -2.00

Problem: Specify reported log10 MIC for the molecule shown: Nc1nc(NCCO)c2c(ccc3c2ccn3Cc2ccc(-c3ccccc3)cc2)n1
Solution: 0.37

Problem: Recall and state the measured log10 MIC for C#Cc1ccc(Cn2ccc3c4c(N)nc(N)nc4ccc32)cc1 .
Solution: -2.00

Problem: Consider the molecule Nc1nc(N)c2c(ccc3c2ccn3CC2CCCC2)n1 and give its recorded log10 MIC.
Solution: -1.52

* * *

Overview of reported Compound MICs, Escherichia coli, ATCC BAA-198 across a group of molecules:
- Test system: Escherichia coli, ATCC BAA-198
- test: MIC testing, broth microdilution in CAMHB
- Type: cell-based
- measurement.setup: 37° C., 18-20 hr, lowest concentration that completely inhibits visible growth
Express your answer in µg/mL, writing the number without its unit.

Illustrative cases are given below, each with its answer.
molecule | unit.annotation | result.number
N#Cc1cncc(Cn2ccc3c4c(N)nc(N)nc4ccc32)c1 [Compound 53] | µg/mL | 21.3
CC#Cc1ccc(Cn2ccc3c4c(N)nc(NC5CC5)nc4ccc32)cc1 [Compound 18] | µg/mL | 21.3

Problem: Name the recorded Compound MICs, Escherichia coli, ATCC BAA-198 of the molecule listed here: Cc1ccc(Cn2ccc3c4c(N)nc(N)nc4ccc32)c2ccccc12 [Compound 42]
Solution: 7.11

Problem: Find the measured Compound MICs, Escherichia coli, ATCC BAA-198 of Nc1nc(N)c2c(ccc3c2ccn3Cc2cccc(F)n2)n1 [Compound 48] and report it.
Solution: 7.11

Problem: Give Compound MICs, Escherichia coli, ATCC BAA-198 for Nc1nc(N)c2c(ccc3c2ccn3Cc2ccc3ccccc3c2)n1 [Compound 26]
Solution: 2.37

Problem: Name the recorded Compound MICs, Escherichia coli, ATCC BAA-198 of the item COc1ccc(Cn2ccc3c4c(N)nc(N)nc4ccc32)c(Cl)c1 [Compound 65] in your answer.
Solution: 7.11

Problem: Provide Compound MICs, Escherichia coli, ATCC BAA-198 value for the following molecule: CC#Cc1ccc(Cn2ccc3c4c(N)nc(N)nc4ccc32)cc1 [Compound 25]
Solution: 7.11

Problem: State, in one line, measured Compound MICs, Escherichia coli, ATCC BAA-198 of Nc1nc(N)c2ccc(NCc3ccc(F)cc3)cc2n1 [Compound 64]
Solution: 64

Problem: Give me measured Compound MICs, Escherichia coli, ATCC BAA-198, please, for this molecule: Nc1nc(N)c2c(ccc3c2ccn3Cc2ccc([N+](=O)[O-])cc2)n1 [Compound 34]
Solution: 7.11

Problem: Specify measured Compound MICs, Escherichia coli, ATCC BAA-198 for N#Cc1ccc(Cn2ccc3c4c(N)nc(N)nc4ccc32)s1 [Compound 57] .
Solution: 7.11

Problem: // Input: Nc1nc(N)c2c(ccc3c2ccn3-c2ccc(F)cc2)n1 [Compound 40] . Output its Compound MICs, Escherichia coli, ATCC BAA-198 only.
Solution: 7.11

Problem: Output measured Compound MICs, Escherichia coli, ATCC BAA-198 for this item: Nc1nc(N)c2c(ccc3c2ccn3Cc2cccc(Cl)c2Cl)n1 [Compound 68]
Solution: 2.37

Problem: Report Compound MICs, Escherichia coli, ATCC BAA-198, nothing else, for this molecule: Nc1nc(N)c2c(ccc3c2ccn3Cc2ccc(-c3ccccc3)cn2)n1 [Compound 58]
Solution: 7.11

Problem: Tell me its Compound MICs, Escherichia coli, ATCC BAA-198 given Nc1nc(N)c2c(ccc3c2ccn3Cc2csc(C(F)(F)F)n2)n1 [Compound 60] as the entry.
Solution: 7.11

Problem: Indicate the recorded Compound MICs, Escherichia coli, ATCC BAA-198 value for this molecule: Nc1nc(N)c2c(ccc3c2ccn3Cc2ccc(Br)c3ccccc23)n1 [Compound 44]
Solution: 7.11

* * *

# MIC per record follows
- System: Salmonella typhimurium, CMCC 50115
Write the answer as a number in µg/mL, unit excluded.

Reference set, count: 8
compound | MIC (µg/mL)
Nc1nc(N)c2c(ccc3c2ccn3Cc2cccc(Oc3ccccc3)c2)n1 [Compound 5] | 0.79
COc1cc(Cn2ccc3c4c(N)nc(N)nc4ccc32)cc(OC)c1OC [Compound 71] | 0.79
C#Cc1ccc(Cn2ccc3c4c(N)nc(N)nc4ccc32)cc1 [Compound 1] | 0.088
Nc1nc(N)c2c(ccc3c2ccn3Cc2ccc(F)c(F)c2)n1 [Compound 13] | 0.088
Nc1nc(N)c2c(ccc3c2ccn3C/C=C/c2ccccc2)n1 [Compound 4] | 0.79
CC(C)c1ccc(Cn2ccc3c4c(N)nc(N)nc4ccc32)cc1 [Compound 8] | 0.26
Nc1nc(N)c2c(ccc3c2ccn3Cc2ccc(F)cc2)n1 [Compound 10] | 0.088
COc1ccnc(Cn2ccc3c4c(N)nc(N)nc4ccc32)c1 [Compound 63] | 0.26

Problem: Return reported MIC. Input compound: Nc1nc(N)c2c(ccc3c2ccn3CC#Cc2ccccc2)n1 [Compound 3]
Solution: 0.79

* * *

- Tested on: Staphylococcus aureus, NRS384
Note to self: MIC under 0.09 µg/mL means YES, ties and anything higher get NO.

Solved entries:
line.notation | study.target | group.label
Nc1nc(N)c2c(ccc3c2ccn3Cc2cccc(Oc3ccccc3)c2)n1 | Staphylococcus aureus, NRS384 | NO
Nc1nc(N)c2c(ccc3c2ccn3C/C=C/c2ccccc2)n1 | Staphylococcus aureus, NRS384 | YES
Nc1nc(N)c2c(ccc3c2ccn3Cc2cccc(F)c2)n1 | Staphylococcus aureus, NRS384 | NO
Nc1nc(NCCO)c2c(ccc3c2ccn3Cc2ccc(-c3ccccc3)cc2)n1 | Staphylococcus aureus, NRS384 | NO
COc1ccc(Br)cc1Cn1ccc2c3c(N)nc(N)nc3ccc21 | Staphylococcus aureus, NRS384 | YES

Problem: Bench note: check whether COc1ccnc(Cn2ccc3c4c(N)nc(N)nc4ccc32)c1 shows MIC below 0.09 µg/mL
Solution: NO

Problem: Take the compound C#Cc1ccc(Cn2ccc3c4c(N)nc(NC5CC5)nc4ccc32)cc1 and say whether its MIC is less than 0.09 µg/mL.
Solution: NO

Problem: Strictly below 0.09 µg/mL in MIC? Nc1nc(N)c2c(ccc3c2ccn3CC#Cc2ccccc2)n1
Solution: NO

Problem: # strict comparison: is reported MIC < 0.09 µg/mL? input = COc1cc(Cn2ccc3c4c(N)nc(N)nc4ccc32)cc(OC)c1OC
Solution: YES
